protocolText: Cytotoxicity against mouse 3T3L1 cells assessed as cell viability at 25 ug/ml after 7 days relative to control
Assay type: cell-based
recordedConditions: 3T3-L1 cells, read-out: Activity
valueKind: viability at 168 h, 25 ug/ml (%)
Quick reminder: number only, in %, skip the unit.

Give the measured viability at 168 h, 25 ug/ml of NC[C@H](O)c1ccc(O)c(O)c1 [NOREPINEPHRINE] .
123

###

protocolText: Cytotoxicity against mouse 3T3L1 cells assessed as cell viability at 4 ug/ml after 7 days relative to control
Format: cell-based
recordedConditions: 3T3-L1 cells, read-out: Activity
valueKind: viability at 168 h, 4 ug/ml (%)
Quick reminder: number only, in %, skip the unit.

Give the measured viability at 168 h, 4 ug/ml of CC1=C[C@@H]2[C@@H](C(C)C)[C@H](O)C=C(C(=O)O)[C@@H]2CC1 .
82
